Values compiled from patent US20080182806A1.

Experiment: Pharmacokinetics and metabolism of TAC in mice (plasma LC/MS/MS)
Format: in vivo
Conditions: female, C57/BL6, mouse, plasma; by 4 hours after oral administration of 38 mg/kg TAC; read-out: TAC plasma concentration (below the limit of detection)
parameter: concentration at 4 h

Fill in reported concentration at 4 h for this entry: CC(=O)OC[C@H]1O[C@@H](n2cnc(N)nc2=O)[C@H](OC(C)=O)[C@@H]1OC(C)=O < 30 ng/mL

====

Assay: Pharmacokinetics and metabolism of TAC in mice (plasma LC/MS/MS)
Assay type: in vivo
Conditions: female, C57/BL6, mouse, iv, 25 mg/kg; azacytidine administered i.v., mice plasma
Description: The title product and its active metabolite azacytidine (ACT) were then subjected to LC/MS/MS analysis using the following protocol. […] Samples were then initially prepared as follows. A measured aliquot of the acetonitrile extracted plasma sample was removed and placed into a 10×75 mm disposable glass test tube, followed by evaporating liquid down to approximately 50 μl under nitrogen at 37° C., diluting with 1 ml 2% phosphoric acid, and vortexing for 10 seconds at 3,000 rpm. […]
parameter: half-life

Fill in reported half-life for this entry: Nc1ncn([C@@H]2O[C@H](CO)[C@@H](O)[C@H]2O)c(=O)n1 [ACT] 4 to 5 h
